Molecular target: Human LPA1 (Homo sapiens, UniProt Q92633)
Sequence (Q92633 whole entry): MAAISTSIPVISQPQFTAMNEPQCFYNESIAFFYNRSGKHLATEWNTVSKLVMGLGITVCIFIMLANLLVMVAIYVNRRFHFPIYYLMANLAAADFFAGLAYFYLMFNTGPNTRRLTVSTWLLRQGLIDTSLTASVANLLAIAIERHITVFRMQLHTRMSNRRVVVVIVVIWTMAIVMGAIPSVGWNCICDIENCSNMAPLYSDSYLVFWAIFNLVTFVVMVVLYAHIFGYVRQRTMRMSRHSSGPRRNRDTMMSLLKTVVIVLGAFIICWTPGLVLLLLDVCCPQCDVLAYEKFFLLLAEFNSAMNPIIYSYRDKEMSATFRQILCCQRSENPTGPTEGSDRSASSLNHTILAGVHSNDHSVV
Assay: Beta-Arrestin based assay for human LPA1R antagonists (PathHunter)
Conditions: CHO cells stably expressing ProLink tagged human LPA1R; agonist LPA 0.5 micromolar
pEC50: −log10 of the molar value.
observation_type: pEC50

Example entries and their recorded answers appear below.
INPUT: Please report the recorded pEC50 for Cc1nsc(-c2ccc(-c3ccc(C4(C(=O)O)CC4)cc3)cc2)c1NC(=O)OC1(c2ccccc2)CC1 .
OUTPUT: < 6.30

INPUT: Now the compound CCCCC(=O)NCC(=O)c1ccc(-c2ccc(CC(=O)O)cc2)cc1 [reference compound]
OUTPUT: < 6.30

INPUT: Now the compound C[C@@H](OC(=O)Nc1ccnn1-c1ccc(-c2ccc(C3(C(=O)O)CC3)cc2)cc1)c1ccccc1Cl
OUTPUT: > 7.30

Others:
INPUT: Please report the recorded pEC50 for CCOC(=O)Cc1ccc(-c2ccc(-c3onc(C)c3NS(=O)(=O)c3ccccc3)cc2)cc1 .
OUTPUT: < 6.30

INPUT: Now the compound Cc1noc(-c2ccc3cc(C#CC4(C(=O)O)CC4)ccc3c2)c1NC(=O)OCc1ccccc1
OUTPUT: > 7.30

INPUT: Now the compound O=C(Nc1cncn1-c1ccc(-c2ccc(C3(C(=O)O)CC3)cc2)cc1)OCc1ccccc1
OUTPUT: < 6.30

INPUT: Now the compound Cc1nsc(C#Cc2ccc3cc(C4(C(=O)O)CC4)ccc3c2)c1NC(=O)O[C@H](C)c1ccccc1Cl
OUTPUT: > 7.30

INPUT: Now the compound Cc1nsc(-c2ccc3c(c2)CCc2cc(C4(C(=O)O)CC4)ccc2-3)c1NC(=O)OCc1ccccc1
OUTPUT: 6.30 to 7.30

INPUT: Now the compound Cc1nsc(-c2ccc(-c3ccc(C4(C(=O)O)CC4)cc3)cc2)c1NC(=O)OCc1ccccn1
OUTPUT: < 6.30

INPUT: Now the compound C[C@@H](OC(=O)Nc1snnc1-c1ccc(-c2ccc(C3(C(=O)O)CC3)cc2)cc1)c1ccccc1
OUTPUT: 6.30 to 7.30

INPUT: Now the compound Cc1nsc(-c2ccc(-c3ccc(CC(=O)O)c(F)c3)cc2)c1NC(=O)O[C@H](C)c1ccccc1Cl
OUTPUT: 6.30 to 7.30

INPUT: Now the compound Cc1nsc(-c2ccc(-c3ccc(CC(=O)O)cc3)cc2)c1NC(=O)O[C@H](C)c1ccccc1Cl
OUTPUT: 6.30 to 7.30

INPUT: Now the compound O=C(O)Cc1ccc(N2CCN(C(=O)[C@H](NC(=O)OCc3ccccc3)c3ccccc3)CC2)cc1
OUTPUT: < 6.30

INPUT: Now the compound Cc1noc(-c2ccc(-c3ccc(C4(C(=O)O)CN(C)C4)cc3)cc2)c1NC(=O)O[C@H](C)c1ccccc1Cl
OUTPUT: 6.30 to 7.30

INPUT: Now the compound CC(C)NC(=O)Nc1ncncc1-c1ccc(-c2ccc(CC(=O)O)cc2)cc1 [reference compound]
OUTPUT: < 6.30

Sourced from patent US8975235B2
